procedure-summary: Inhibition of Phosphatidylinositol 3-kinase from bovine brain
Set-up: species or system Bos taurus
Parameter IC50: see the listing below.
Give a bare numeral; the unit ng/mL is implied.

{"molecule": "COC[C@H]1OC(=O)c2coc3c2[C@@]1(C)C1=C(C3=O)[C@@H]2CCC(=O)[C@@]2(C)C[C@H]1O", "IC50 [ng/mL]": 10}
{"molecule": "C=CC(=O)O[C@@H]1C[C@]2(C)C(=O)CC[C@H]2C2=C1[C@]1(C)c3c(coc3C2=O)C(=O)O[C@@H]1COC", "IC50 [ng/mL]": 0.95}

Prompt: Record request: IC50 value, item COC[C@H]1OC(=O)c2coc3c2[C@@]1(C)C1=C(C3=O)[C@@H]2CCC(=O)[C@@]2(C)CC1=O
Response: 1.6

Prompt: Record: CCC(=O)O[C@@H]1C[C@]2(C)C(O)CC[C@H]2C2=C1[C@]1(C)c3c(coc3C2=O)C(=O)O[C@@H]1COC (stereo partly specified)
Response: 0.38

Prompt: Record: CCCCC(=O)O[C@@H]1C[C@]2(C)C(=O)CC[C@H]2C2=C1[C@]1(C)c3c(coc3C2=O)C(=O)O[C@@H]1COC
Response: 1.2

Prompt: Record: CCCC(=O)O[C@@H]1C[C@]2(C)C(=O)CC[C@H]2C2=C1[C@]1(C)c3c(coc3C2=O)C(=O)O[C@@H]1COC
Response: 0.4
